Reference source for all entries: patent US20060089371A1

- Study System: IP receptor (Homo sapiens)
- Construct: one million cells in 160 μl aliquot of cell suspension were put in a well of 96 well plate
- Sequence (P43119 whole entry): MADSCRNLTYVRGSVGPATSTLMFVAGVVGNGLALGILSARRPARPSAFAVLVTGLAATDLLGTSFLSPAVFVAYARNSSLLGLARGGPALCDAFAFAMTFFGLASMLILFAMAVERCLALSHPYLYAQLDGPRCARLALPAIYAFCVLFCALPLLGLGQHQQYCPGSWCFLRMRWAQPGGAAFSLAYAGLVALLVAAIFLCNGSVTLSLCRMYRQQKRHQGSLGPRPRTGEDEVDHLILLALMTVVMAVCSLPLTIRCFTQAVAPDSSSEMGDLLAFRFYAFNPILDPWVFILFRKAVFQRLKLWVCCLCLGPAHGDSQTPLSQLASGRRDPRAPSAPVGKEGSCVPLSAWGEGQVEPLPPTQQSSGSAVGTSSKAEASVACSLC
- Procedure Details: IP receptor binding/cAMP in HEL cells ([3H]-iloprost binding, Assay 1; iloprost-induced cAMP production, Assay 2)
- Condition Set: compounds of about 40 to 90% purity, read-out: In vitro activity grade (IC50 class)
pIC50: −log10 of the molar value.
Assay Metric: pIC50

Hey, IP receptor (Homo sapiens) data for O=C(c1ccccc1)c1ccc(-c2cc(N[C@@H](Cc3ccccc3)C(=O)O)ncn2)cc1 [Example 17-1] : pIC50 came out at > 7.00

Hey, IP receptor (Homo sapiens) data for COc1cccc(COc2ccc(-c3cccc(N[C@@H](Cc4ccccc4)C(=O)O)c3)cc2)c1 [Example 24-2] : pIC50 came out at > 7.00

Hey, IP receptor (Homo sapiens) data for O=C(O)C(Cc1ccccc1)Nc1cc(-c2ccc(OCc3cccc(O)c3)cc2)ncn1 (centres unmarked) [Example 2-14] : pIC50 came out at > 7.00

Hey, IP receptor (Homo sapiens) data for O=C(O)C(Cc1ccc([N+](=O)[O-])cc1)Nc1cc(-c2ccc(OCc3ccccc3)cc2)ncn1 (centres unmarked) [Example 1-25] : pIC50 came out at > 7.00

Hey, IP receptor (Homo sapiens) data for CC(C)Oc1ccc(-c2cc(NC(Cc3ccccc3)C(=O)O)ncn2)cc1 (centres unmarked) [Example 2-12] : pIC50 came out at > 7.00

Hey, IP receptor (Homo sapiens) data for O=C(O)C(Cc1ccccn1)Nc1cc(-c2ccc(OCc3ccccc3)cc2)ncn1 (centres unmarked) [Example 1-31] : pIC50 came out at > 7.00

Hey, IP receptor (Homo sapiens) data for O=C(O)C(Cc1ccccc1)Nc1cc(-c2ccc(OCCN3CCCC3)cc2)ncn1 (centres unmarked) [Example 2-22] : pIC50 came out at < 6.00

Hey, IP receptor (Homo sapiens) data for CC(C)(C)OC(=O)Nc1ccc(-c2cc(NC(Cc3ccccc3)C(=O)O)ncn2)cc1 (centres unmarked) [Example 14-2] : pIC50 came out at 6.00 to 7.00

====

- Study System: IP receptor (Homo sapiens)
- Construct: one million cells in 160 μl aliquot of cell suspension were put in a well of 96 well plate
- Procedure Details: IP receptor binding/cAMP in HEL cells ([3H]-iloprost binding, Assay 1; iloprost-induced cAMP production, Assay 2)
- Condition Set: compounds of about 40 to 90% purity, read-out: In vitro activity grade (IC50 class)
pIC50: −log10 of the molar value.
Would you kindly list pIC50 for each of these compounds?

So for COc1cc(COc2ccc(-c3cc(NC(Cc4ccccc4)C(=O)O)ncn3)cc2)cc(OC)c1 (centres unmarked) , the logged pIC50 turned out to be > 7.00

So for O=C(O)C(Cc1ccccc1)Nc1cc(-c2ccc(OCC3CCCC3)cc2)ncn1 (centres unmarked) , the logged pIC50 turned out to be > 7.00

So for O=C(O)C(Cc1ccccc1)Nc1cc(-c2ccc(OCc3cc(F)cc(F)c3)cc2)ncn1 (centres unmarked) , the logged pIC50 turned out to be > 7.00

So for O=C(O)C(Cc1ccccn1)Nc1cc(-c2ccc(OCC3CC3)cc2)ncn1 (centres unmarked) , the logged pIC50 turned out to be 6.00 to 7.00

So for `O=C(O)[C@H](Cc1ccccc1)Nc1ncnc(-c2ccc(OCc3ccccc3)cc2)c1CO` , the logged pIC50 turned out to be 6.00 to 7.00

So for CN(c1cc(-c2ccc(OCc3ccccc3)cc2)ncn1)C(Cc1ccccc1)C(=O)O (centres unmarked) , the logged pIC50 turned out to be > 7.00

So for O=C(O)C(Cc1ccccc1)Nc1cc(-c2ccc(CNCc3ccccc3)cc2)ncn1 (centres unmarked) , the logged pIC50 turned out to be 6.00 to 7.00

So for CC(C)COc1ccc(-c2cc(NC(Cc3ccccc3)C(=O)O)ncn2)cc1 (centres unmarked) , the logged pIC50 turned out to be > 7.00

So for COc1cc(COc2ccc(-c3cc(NC(Cc4ccccn4)C(=O)O)ncn3)cc2)cc(OC)c1 (centres unmarked) , the logged pIC50 turned out to be > 7.00

So for CSc1nc(NC(Cc2ccccc2)C(=O)O)cc(-c2ccc(OCc3ccccc3)cc2)n1 (centres unmarked) , the logged pIC50 turned out to be 6.00 to 7.00

So for `O=C(O)[C@H](Cc1ccccc1)Nc1ccnc(-c2ccc(OCc3ccccc3)cc2)c1` , the logged pIC50 turned out to be > 7.00

So for O=C(O)C(Cc1ccccc1)Nc1cc(-c2ccc(OCc3ccccc3)c(F)c2)ncn1 (centres unmarked) , the logged pIC50 turned out to be > 7.00

So for C#CCC(Nc1cc(-c2ccc(OCc3ccccc3)cc2)ncn1)C(=O)O (centres unmarked) , the logged pIC50 turned out to be > 7.00

So for `O=C(O)[C@H](Cc1ccccc1)Nc1cc(-c2ccc(/C=C/c3ccccc3)cc2)ncn1` , the logged pIC50 turned out to be > 7.00

So for O=C(O)C(Cc1ccccc1)Nc1cc(-c2ccc(OCCc3ccncc3)cc2)ncn1 (centres unmarked) , the logged pIC50 turned out to be > 7.00

So for O=C(O)C(Cc1ccccc1)Nc1cc(-c2ccc(Cc3ccc(Cl)cc3)cc2)ncn1 (centres unmarked) , the logged pIC50 turned out to be 6.00 to 7.00

So for O=C(O)C(Cc1ccccc1)Nc1cc(-c2ccc(OCCc3cccnc3)cc2)ncn1 (centres unmarked) , the logged pIC50 turned out to be > 7.00

====

Would you kindly list melting point for each of these molecules?

So for O=C(O)C(Cc1ccccc1)Nc1cc(-c2ccc(OCCc3ccccc3)cc2)ncn1 (stereo not drawn) , the logged melting point turned out to be 214 to 216 °C (dec.)

So for O=C(O)C(Cc1ccccc1)Nc1cc(-c2ccc(OCc3ccccc3)cc2)ncn1 (stereo not drawn) , the logged melting point turned out to be 175 to 178 °C

So for CC(Cc1ccccc1)(Nc1cc(-c2ccc(OCc3ccccc3)cc2)ncn1)C(=O)O (stereo not drawn) , the logged melting point turned out to be 187 °C

So for `NCCOc1cccc(C[C@H](Nc2cc(-c3ccc(OCc4ccccc4)cc3)ncn2)C(=O)O)c1` , the logged melting point turned out to be 153.8 °C

So for CCCCOc1ccc(-c2cc(NC(Cc3ccccc3)C(=O)O)ncn2)cc1 (stereo not drawn) , the logged melting point turned out to be 205 to 208 °C

So for COc1cc(COc2ccc(-c3cccc(NC(Cc4ccccc4)C(=O)O)c3)cc2)cc(OC)c1 (stereo not drawn) , the logged melting point turned out to be 166 to 168 °C

So for O=C(O)C(Cc1ccccc1)Nc1cc(-c2ccc(CCCc3ccccc3)cc2)ncn1 (stereo not drawn) , the logged melting point turned out to be 112 to 114 °C

So for `O=C(O)[C@H](Cc1ccccc1)Nc1cc(-c2ccc(Cc3ccccc3)cc2)ncn1` , the logged melting point turned out to be 116 to 118 °C

So for CS(=O)(=O)CCC(Nc1cc(-c2ccc(OCc3ccccc3)cc2)ncn1)C(=O)O (stereo not drawn) , the logged melting point turned out to be 138 °C

So for O=C(O)C(Cc1ccccc1)Nc1cc(-c2ccc(OCc3ccncc3)cc2)ncn1 (stereo not drawn) , the logged melting point turned out to be 110 to 113 °C

So for O=C(O)C(Cc1ccccc1)Nc1cc(-c2ccc(OCc3cc(F)cc(F)c3)cc2)ncn1 (stereo not drawn) , the logged melting point turned out to be 207 to 210 °C (dec.)

So for O=C(O)C(Cc1ccc(Cl)cc1)Nc1cc(-c2ccc(OCc3ccccc3)cc2)ncn1 (stereo not drawn) , the logged melting point turned out to be 150 to 153 °C (dec.)

So for O=C(O)C(Cc1ccccc1)Nc1cccc(-c2ccc(OCc3ccccc3)nc2)c1 (stereo not drawn) , the logged melting point turned out to be 150 to 153 °C

So for O=C(O)C(Cc1ccccc1)Nc1ncnc(-c2ccc(OCc3ccccc3)cc2)c1[N+](=O)[O-] (stereo not drawn) , the logged melting point turned out to be < 80 °C

So for O=C(O)C(Cc1ccccc1)Nc1cc(-c2ccc(-c3cccc4ccccc34)cc2)ncn1 (stereo not drawn) , the logged melting point turned out to be 135 to 138 °C (dec.)

So for CCCCC(Nc1cc(-c2ccc(OCc3ccccc3F)cc2)ncn1)C(=O)O (stereo not drawn) , the logged melting point turned out to be 85 to 90 °C

So for O=C(O)C(Cc1ccccc1)Nc1ncnc(-c2ccc(OCc3ccccc3)cc2)c1F (stereo not drawn) , the logged melting point turned out to be 145 to 146 °C

So for O=C(O)C(Cc1ccccn1)Nc1cc(-c2ccc(COc3ccccc3)cc2)ncn1 (stereo not drawn) , the logged melting point turned out to be 81 to 84 °C

So for `O=C(O)[C@H](Cc1ccccc1)Nc1cc(-c2ccc(/C=C/c3ccccc3)cc2)ncn1` , the logged melting point turned out to be 214 to 216 °C (dec.)

So for CSc1ccc(-c2ccc(-c3cc(NC(Cc4ccccc4)C(=O)O)ncn3)cc2)cc1 (stereo not drawn) , the logged melting point turned out to be 135 to 137 °C (dec.)

So for O=C(O)C(Cc1ccccc1)Nc1cc(-c2ccc(OCC3CCCCC3)cc2)ncn1 (stereo not drawn) , the logged melting point turned out to be 118 to 120 °C

So for O=C(O)C(Cc1ccccc1)Nc1cc(-c2ccc(OCc3cccc(F)c3)cc2)ncn1 (stereo not drawn) , the logged melting point turned out to be 175 to 177 °C

So for O=C(O)C(Cc1ccccc1)Nc1cc(-c2ccc(-c3ccccc3)cc2)ncn1 (stereo not drawn) , the logged melting point turned out to be 146 to 148 °C (dec.)

So for `O=C(O)[C@@H](Cc1ccccn1)Nc1cc(-c2ccc(OCc3ccccc3)cc2)ncn1` , the logged melting point turned out to be 142 °C

So for O=C(O)C(Cc1ccccc1)Nc1cc(-c2ccc(-c3ccc4c(c3)OCO4)cc2)ncn1 (stereo not drawn) , the logged melting point turned out to be 139 to 142 °C (dec.)

So for CCCCC(Nc1cc(-c2ccc(OCc3cc(F)cc(F)c3)cc2)ncn1)C(=O)O (stereo not drawn) , the logged melting point turned out to be 141 to 147 °C

So for O=C(O)C(Cc1ccccc1)Nc1ncnc(-c2ccc(OCC3CC3)cc2)c1F (stereo not drawn) , the logged melting point turned out to be 170 to 173 °C

So for COCCOc1ccc(-c2cc(NC(Cc3ccccc3)C(=O)O)ncn2)cc1 (stereo not drawn) , the logged melting point turned out to be 190 to 193 °C (dec.)

So for C#CCC(Nc1cc(-c2ccc(OCc3ccccc3)cc2)ncn1)C(=O)O (stereo not drawn) , the logged melting point turned out to be 155 °C

So for O=C(O)C(Cc1ccccc1)Nc1cc(-c2ccc(Cc3ccc(F)cc3)cc2)ncn1 (stereo not drawn) , the logged melting point turned out to be 98 to 101 °C

So for O=C(O)C(Cc1ccccc1)Nc1cc(-c2ccc(-c3cccc([N+](=O)[O-])c3)cc2)ncn1 (stereo not drawn) , the logged melting point turned out to be 125 to 127 °C (dec.)

So for O=C(O)C(COCc1ccccc1)Nc1cc(-c2ccc(OCc3ccccc3)cc2)ncn1 (stereo not drawn) , the logged melting point turned out to be 132 to 135 °C

So for O=C(O)C(Cc1ccccc1)Nc1cc(-c2ccc(Cc3ccc(Cl)cc3)cc2)ncn1 (stereo not drawn) , the logged melting point turned out to be 105 to 107 °C
